Recorded z-score values for a group of compounds are listed next.
PROTOCOL DESCRIPTION: inhibitors of hydroxyurea-induced Chk1 phosphorylation, primary screen, imaging, HeLa, phospho-Chk1 antibody, percent positive cells (AID 1186)
TEST CONTEXT: hydroxyurea-induced phospho-Chk1 immunofluorescence imaging, higher = more signal
Active and inactive are the calls of the source. How the calls were made is not given here.
PROPERTY MEASURED: z-score

COMPOUND: CN(C)CCCCCCNC(=O)[C@H]1C[C@H]2C(=O)N3CCC[C@H]3C(=O)N2[C@H]1c1ccc(O)cc1
PROPERTY MEASURED: z-score
READOUT VALUE: -0.0982 (inactive)

COMPOUND: CC1CC/C=C\[C@H]2OC34C=CCN(Cc5ccccc5)C(=O)[C@H]3N(CCCO)C(=O)[C@@H]4C2C(=O)O1 (stereo partly drawn)
PROPERTY MEASURED: z-score
READOUT VALUE: -0.364 (inactive)

COMPOUND: COC(=O)[C@@]1(Cc2ccccc2)[C@H]2c3cc(C(=O)N(C)C)n(Cc4ccsc4Br)c3C[C@H]2CN1C(=O)c1ccccc1
PROPERTY MEASURED: z-score
READOUT VALUE: 0.567 (inactive)

COMPOUND: COCCOC(=O)N1C(=O)[C@@]2(c3cc(C#Cc4ccc(OC)cc4)ccc31)[C@H](c1ccc(OCCO)cc1)N1[C@H](c3ccccc3)[C@H](c3ccccc3)OC(=O)[C@H]1[C@@H]2C(=O)N1CCN(c2ncccn2)CC1
PROPERTY MEASURED: z-score
READOUT VALUE: 0.13 (inactive)

COMPOUND: Cc1ccc(S[C@]2(C(=O)NCCCN(C)C)CC(=O)N(Cc3cc(C(F)(F)F)cc(C(F)(F)F)c3)[C@@H]2c2ccc(CO)cc2I)cc1
PROPERTY MEASURED: z-score
READOUT VALUE: 0.522 (inactive)

COMPOUND: C=CCC(OC(C)=O)[C@@H]1[C@@H](N(Cc2ccc(-c3ccccc3)cc2)C(=O)c2ccc(-c3ccccc3)cc2)c2cc(OCCCO)ccc2N1C(=O)Cc1ccc2ccccc2c1 (stereo partly drawn)
PROPERTY MEASURED: z-score
READOUT VALUE: 0.321 (inactive)

COMPOUND: CCN(CC)c1ccc(N2CC=CC34O[C@@H]5C=CCCOC(=O)C5[C@H]3C(=O)N(CCCCCCO)[C@@H]4C2=O)cc1 (stereo partly drawn)
PROPERTY MEASURED: z-score
READOUT VALUE: -0.43 (inactive)

COMPOUND: COC(=O)[C@@]1(Cc2ccccc2)N=C(c2ccc(OCCCO)cc2)O[C@H]1c1ccccc1
PROPERTY MEASURED: z-score
READOUT VALUE: -0.343 (inactive)

COMPOUND: C=CCOC(=O)[C@@H]1[C@H]2C(=O)O[C@H](c3ccccc3)[C@H](c3ccccc3)N2[C@H](c2ccc(OCCOC(=O)[C@@H]3C[C@@H]4C(=O)NCC(=O)N4[C@@H]3c3ccc(O)cc3)cc2)[C@@]12C(=O)Nc1ccc(I)cc12
PROPERTY MEASURED: z-score
READOUT VALUE: 0.273 (inactive)

COMPOUND: C=CCNC(=O)[C@H]1[C@@H]2C(=O)O[C@@H](c3ccccc3)[C@@H](c3ccccc3)N2[C@@H](c2ccccc2OCCO)[C@]12C(=O)Nc1ccc(C#CCC(C(=O)OC)C(=O)OC)cc12
PROPERTY MEASURED: z-score
READOUT VALUE: -0.0106 (inactive)

COMPOUND: O=C(c1ccccc1)N1C(=O)[C@@]2(Cc3ccccc31)N=C(c1ccc(OCCCO)cc1)O[C@H]2c1ccccc1
PROPERTY MEASURED: z-score
READOUT VALUE: 0.0794 (inactive)

COMPOUND: CCCCCN1CC=CC23O[C@@H]4/C=C\CCC(C)OC(=O)C4[C@H]2C(=O)N(C(C)CO)[C@@H]3C1=O (stereo partly drawn)
PROPERTY MEASURED: z-score
READOUT VALUE: -0.808 (inactive)

COMPOUND: CC1(C)C2C=C(C(O)C3C=CC4C(=O)NC(=O)C4N3Nc3ccc(Cl)cc3Cl)C[C@@H]1C2 (stereo partly drawn)
PROPERTY MEASURED: z-score
READOUT VALUE: 0.955 (inactive)
